# ASSAYED TARGET: T1, recombinant biotinylated human CD137 protein (Fc-fusion protein, R&D Systems 838-4B) (human, UniProt Q07011 24-186, biotinylated (site not stated))
# T1 construct: Bought Fc fusion; The ELISA used the same antigen as the panning; also called CD137-Fc; biotinylated CD137; not shown: Fc part of the bought fusion protein
# ASSAY PROCEDURE: ELISA, bacterial lysate on plate-bound antigen, luminescence
Output: class label from ELISA CD137-Fc (RLU). Mapping: range A: < 500000 RLU; range B: ≥ 500000 RLU and < 900000 RLU; range C: ≥ 900000 RLU

Data request: Pick a category. Item: ISOP120BR5P1E4 (designed binder, not shown: small tags and cut ends, FN3 domain (Centyrin); tested as E. coli lysate) LPAPKNLVVSRVTEDSARLSWDDQFEDWFDSFLIQYQESEQVGEAIVLTVPGSERSYDLTGLKPGTEYTVSIYGVHTRDWTAWNASNPLSAIFTT
Data returned: range C

Data request: Could you do the same for ISOP120ER5P1A11 (designed binder, not shown: small tags and cut ends, FN3 domain (Centyrin); tested as E. coli lysate) LPAPKNLVVSRVTEDSARLSWTAPDAAFDSFEIYYKELRAEGEAIVLTVPGSERSYDLTGLKPGTEYLVTIYGVKGGSVSIPLSAIFTT , please?
Data returned: range C

Data request: Could you do the same for ISOP120AR5P1B12 (designed binder, not shown: small tags and cut ends, FN3 domain (Centyrin)) LPAPKNLVVSRVTEDSARLSWDGDKWANFKFDSFLIQYQESEKVGEAIVLTVPGSERSYDLTGLKPGTEYTVSIYGVGLHYIVYDSNPLSAIFTT , please?
Data returned: range B

Data request: Could you do the same for ISOP120ER5P1F4 (designed binder, not shown: small tags and cut ends, FN3 domain (Centyrin); tested as E. coli lysate) LPAPKNLVVSRVTEDSARLSWTAPDAAFDSFVIRYIEDTVMGEAIVLTVPGSERSYDLTGLKPGTEYHVSIEGVKGGPSSLPLSAIFTT , please?
Data returned: range B

Data request: Could you do the same for ISOP120AR5P1F11 (designed binder, not shown: small tags and cut ends, FN3 domain (Centyrin); tested as E. coli lysate) LPAPKNLVVSRVTEDSARLSWTNEQITKYGFDSFLIQYQESEKVGEAIVLTVPGSERSYDLTGLKPATEYTVSIYGVGRHYTVYDSNPLSAIFTT , please?
Data returned: range B

Data request: Could you do the same for ISOP120ER5P1E5 (designed binder, not shown: small tags and cut ends, FN3 domain (Centyrin); tested as E. coli lysate) LPAPKNLVVSRVTEDSARLSWTAPDAAFDSFRISYLEDVYYGEAIVLTVPGSERSYDLTGLKPGTEYHVGIHGVKGGIDSFPLSAIFTT , please?
Data returned: range A

Data request: Could you do the same for ISOP120GR5P1F5 (designed binder, not shown: small tags and cut ends, FN3 domain (Centyrin); tested as E. coli lysate) LPAPKNLVVSRVTEDSARLSWTAPDAAFDSFEIDYWEVESEGEAIVLFVPGSERSYDLTGLKPGTEYHVHIVGVKGGTPSYPLWADFTT , please?
Data returned: range C

Data request: Could you do the same for ISOP120BR5P1C1 (designed binder, not shown: small tags and cut ends, FN3 domain (Centyrin); tested as E. coli lysate) LPAPKNLVVSRVTEDSARLSWVREDAYAFDSFLIQYQESEKVGEAIVLTVPGSERSYDLTGLKPGTEYTVSIYGVSSLHWVVHDSNPLSAIFTT , please?
Data returned: range A

Data request: Could you do the same for ISOP120FR5P1C2 (designed binder, not shown: small tags and cut ends, FN3 domain (Centyrin); tested as E. coli lysate) LPAPKNLVVSRVTEDSARLSWTAPDAAFDSFDINYFEQPKGGEAIVLTVPGSERSYDLTGLKPGTEYLVTIYGVKGGPYSPPLSAIFTT , please?
Data returned: range A

Data request: Could you do the same for ISOP120HR5P1A3 (designed binder, not shown: small tags and cut ends, FN3 domain (Centyrin); tested as E. coli lysate) LPAPKNLVVSRVTEDSARLSWTAPDAAFDSFEIYYAEFGYYGEAIVLTVPGSERSYDLTGLKPGTEYTVTIYGVKGGWYSTPLSAIFTT , please?
Data returned: range C

Data request: Could you do the same for ISOP120GR5P1H6 (designed binder, not shown: small tags and cut ends, FN3 domain (Centyrin); tested as E. coli lysate) LPAPKNLVVSRVTEDSARLSWTNEQITKYGFDSFLIQYQESEKVGEAIVLTVPGSERSYDLTGLKPGTEYTVSIYGVGRHYTVYDSNPLSAIFTT , please?
Data returned: range B

Data request: Could you do the same for ISOP120BR5P1A10 (designed binder, not shown: small tags and cut ends, FN3 domain (Centyrin); tested as E. coli lysate) LPAPKNLVVSRVTEDSARLSWTEEDITHLRFDSFLIQYQESEKVGEAIVLTVPGSERSYDLTGLKPGTEYTVSIYGVYWTWWVRWNSNPLSAIFTT , please?
Data returned: range B
